- targetEntity: T1, human factor IX (human, UniProt P00740 47-461, 12 glutamic acid residues of the GLA domain are post-translationally γ-carboxylated)
- T1 construct: Zymogen used as analyte in SPR, reconstituted at 1 mg/ml; also called FIX; Human FIX (MW ~55 KDa)
- T1 sequence (P00740 47-461 limits assumed): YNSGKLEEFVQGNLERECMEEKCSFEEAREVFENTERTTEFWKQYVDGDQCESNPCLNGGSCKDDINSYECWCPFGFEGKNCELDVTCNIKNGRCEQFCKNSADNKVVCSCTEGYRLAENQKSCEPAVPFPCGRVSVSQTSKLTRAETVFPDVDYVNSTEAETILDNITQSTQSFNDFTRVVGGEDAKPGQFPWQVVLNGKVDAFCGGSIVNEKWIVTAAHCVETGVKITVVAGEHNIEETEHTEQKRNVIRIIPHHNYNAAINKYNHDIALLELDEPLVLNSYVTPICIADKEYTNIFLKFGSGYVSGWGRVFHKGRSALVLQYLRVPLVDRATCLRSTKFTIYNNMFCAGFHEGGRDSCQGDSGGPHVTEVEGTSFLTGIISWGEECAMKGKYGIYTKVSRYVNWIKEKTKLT
- experimentDescription: SPR, IgG captured on anti-human IgG Fc, human FIX as analyte
Below, each entry is listed alongside its reported koff.
Answer format: numeric, s⁻¹ implied, no suffix.

binder	measurementUnit	koff
NINA-0445.0128 (antibody, V domains shown) VH: EVQLVESGGGFVQPGGSLRLSCAVSGFTFNSYWMSWVRQAPGKGLEWVANINQDGSEKFYVASVKGRFTMSRDNAKKSVYVQMNSLRAEDTAVYYCAREGYSSVSYYGMDVWGQGTTVTVSS VL: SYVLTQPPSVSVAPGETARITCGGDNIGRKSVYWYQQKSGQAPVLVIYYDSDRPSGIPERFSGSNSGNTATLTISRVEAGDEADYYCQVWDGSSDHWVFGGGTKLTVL	s⁻¹	0.0544
NINA-0436.0128 (antibody, V domains shown) VH: EVQLVESGGGFVQPGGSLRLSCAVSGFTFNSYWMSWVRQAPGKGLEWVANINQDGSEKFYVASVKGRFTMSRDNAKKSVYVQMNSLRAEDTAVYYCAREGYSSISYYGMDVWGQGTTVTVSS VL: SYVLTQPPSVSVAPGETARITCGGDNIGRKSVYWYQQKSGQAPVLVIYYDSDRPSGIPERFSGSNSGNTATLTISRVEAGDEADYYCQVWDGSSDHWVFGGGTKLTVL	s⁻¹	0.0453
NINA-0460.0128 (antibody, V domains shown) VH: EVQLVESGGGFVQPGGSLRLSCAVSGFTFNSYWMSWVRQAPGKGLEWVANINQDGSEKFYVASVKGRFTMSRDNAKKSVYVQMNSLRAEDTAVYYCAREGYSSSQYYGMDVWGQGTTVTVSS VL: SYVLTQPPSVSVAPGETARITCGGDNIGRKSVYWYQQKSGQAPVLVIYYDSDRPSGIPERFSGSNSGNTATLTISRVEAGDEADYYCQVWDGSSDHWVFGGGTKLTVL	s⁻¹	0.0318

In: Need koff of NINA-0444.0128 (antibody, V domains shown) VH: EVQLVESGGGFVQPGGSLRLSCAVSGFTFNSYWMSWVRQAPGKGLEWVANINQDGSEKFYVASVKGRFTMSRDNAKKSVYVQMNSLRAEDTAVYYCAREGYSSTSYYGMDVWGQGTTVTVSS VL: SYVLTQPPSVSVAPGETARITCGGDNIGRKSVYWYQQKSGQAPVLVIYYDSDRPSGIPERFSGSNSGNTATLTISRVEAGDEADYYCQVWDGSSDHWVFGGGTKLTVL , thanks.
Out: 0.0445
